The origin of these recorded values is paper PMC7937711.

Molecular target: T1, recombinant mouse Clec4F (CLEC4F/CLECSF13), soluble extracellular domain Ala65-Gly548 (Mus musculus, UniProt P70194)
T1 construct: Clec4F (C-type lectin domain family 4, member F), mouse, soluble extracellular domain Ala65-Gly548; the oligomeric state of the bought protein was not measured here; also called mClec4F; mouse Kupffer cell receptor Clec4F; source: bought: R&D Systems (NS0-derived, mouse myeloma cell line)
T1 sequence (P70194 65-548): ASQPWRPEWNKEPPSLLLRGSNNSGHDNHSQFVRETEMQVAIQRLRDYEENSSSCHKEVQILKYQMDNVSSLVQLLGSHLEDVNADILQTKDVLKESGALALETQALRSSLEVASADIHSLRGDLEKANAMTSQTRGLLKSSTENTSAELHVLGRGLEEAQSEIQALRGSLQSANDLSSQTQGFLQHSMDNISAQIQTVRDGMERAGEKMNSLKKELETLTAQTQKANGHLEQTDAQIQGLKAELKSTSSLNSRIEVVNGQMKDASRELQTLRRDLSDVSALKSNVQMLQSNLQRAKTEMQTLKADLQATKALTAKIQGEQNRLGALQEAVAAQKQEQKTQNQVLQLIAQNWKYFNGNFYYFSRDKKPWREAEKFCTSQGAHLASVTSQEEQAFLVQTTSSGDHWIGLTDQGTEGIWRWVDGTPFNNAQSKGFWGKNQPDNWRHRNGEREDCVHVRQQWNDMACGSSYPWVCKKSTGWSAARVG
Assay: SPR; Biacore T200; 400 RU of recombinant mouse Clec4F coupled to a CM5 chip; nanobodies flown at 30 ul/min at 1-400 nM; 1:1 binding model
Settings: both partners purified
Let's look at some binders and their measured koff.
Only the number, expressed in s⁻¹, is required.

See these solved cases before continuing.
>  <Binder>
Nb6.18 (VHH, also called R3-18; group G6; source: E. coli WK6 periplasm, purified (IMAC Ni-NTA, dialysis)) VHH: DVQLGESGGGLVQPGGSLRLSCAASGFTFSSYAMRWVRQAPGKALEWVADINSSGAYTNYRDSVTGRFIISRDNVKNTLYLQMDNMKPEDTAVYYCTTGGQRGQGTQVTVSS

>  <koff [s⁻¹]>
0.000756

$$$$
>  <Binder>
Nb10.17 (VHH, also called R3-17; group G10; source: E. coli WK6 periplasm, purified (IMAC Ni-NTA, dialysis)) VHH: QVQLVESGGGLVQAGGSLRLSCAASGRTFDSYNMGWFRQAPGKEREFVATISRSGAGTYYTDSVKGRFTISRDNAKNTMYLQMNNLKPEDSAAYYCAATLRVALSTITVGGYDIWGQGTQVTVSS

>  <koff [s⁻¹]>
0.00158

$$$$
>  <Binder>
Nb6.3 (VHH, also called R3-3; group G6; source: E. coli WK6 periplasm, purified (IMAC Ni-NTA, dialysis)) VHH: QVQLVESGGGLVQPGGSLRLSCAASGFTFSSYAMRWVRQAPGKGLEWVSDINKGGSGTSYRDSVKGRFTISRDDAKNTLYLQMNSLKPEDTAVYYCTNGGSRGQGTQVTVSS

>  <koff [s⁻¹]>
0.000848

$$$$

Next item in the queue.
Q: What value of koff has been recorded for this entry: Nb13.12 (VHH, also called R3-12; group G13; source: E. coli WK6 periplasm, purified (IMAC Ni-NTA, dialysis)) VHH: QVQLVESGGGLVQDEGSLRLSCAASGLIFSNYIVGWFRQTPGKEREFVAAIRWGGTSSYYSDSVKGRFTVSRDNAKNTLYLQMNNLKPEDTAVYYCATGPYYRGDYRVPDNMDYWGKGTQVTVSS
Ans: 0.0031
